The reported numbers originate from patent US8999981B2.

Entries below carry reported Ki on Protein Kinase C beta 2 (PKCβII) (Homo sapiens (Human), UniProt P05771).
Sequence (P05771 other isoform, or with tags, fused parts or gaps): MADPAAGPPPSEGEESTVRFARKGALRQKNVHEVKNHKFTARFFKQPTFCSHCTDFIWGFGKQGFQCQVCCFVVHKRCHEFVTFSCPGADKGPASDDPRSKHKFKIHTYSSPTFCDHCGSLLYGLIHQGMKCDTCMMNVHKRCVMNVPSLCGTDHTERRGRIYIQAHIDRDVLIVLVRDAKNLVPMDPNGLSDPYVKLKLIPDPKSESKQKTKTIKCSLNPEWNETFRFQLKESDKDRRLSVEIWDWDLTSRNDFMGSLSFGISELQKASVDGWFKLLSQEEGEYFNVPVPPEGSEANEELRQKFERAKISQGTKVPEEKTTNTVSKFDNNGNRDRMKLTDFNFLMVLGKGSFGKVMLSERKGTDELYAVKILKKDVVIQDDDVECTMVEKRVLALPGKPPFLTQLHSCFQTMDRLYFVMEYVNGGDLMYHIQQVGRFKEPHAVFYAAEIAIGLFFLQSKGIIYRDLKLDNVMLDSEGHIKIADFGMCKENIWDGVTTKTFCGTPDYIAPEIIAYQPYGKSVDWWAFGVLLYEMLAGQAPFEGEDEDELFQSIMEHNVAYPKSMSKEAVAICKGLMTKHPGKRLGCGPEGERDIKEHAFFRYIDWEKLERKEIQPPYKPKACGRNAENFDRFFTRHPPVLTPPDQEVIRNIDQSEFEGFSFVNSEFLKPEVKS
The figure you give is taken to be in nM; do not add the unit.

Solved cases below.
structure smiles string | quantity measured | observed value
C[C@H]1CN2C[C@@H](F)C[C@H]2CN1C(=O)N1Cc2c(NC(=O)c3ccccn3)n[nH]c2C1(C)C | Ki | 109
CC[C@H]1CN2CCC[C@H]2CN1C(=O)N1Cc2c(NC(=O)c3ccccc3)n[nH]c2C1(C)C | Ki | 67.8
Cc1ccc(C(=O)Nc2n[nH]c3c2CN(C(=O)N2C[C@@H](C)N(C4CCOCC4)C[C@@H]2C)C3(C)C)nc1 | Ki | 12.2
CCCc1cc(C(=O)Nc2n[nH]c3c2CN(C(=O)N2C[C@@H](C)N(CC4CCOCC4)C[C@@H]2C)C3(C)C)no1 | Ki | 59.4
Cc1cc(C(=O)Nc2n[nH]c3c2CN(C(=O)N2C[C@@H](C)N(CC4CCOCC4)C[C@@H]2C)C3(C)C)no1 | Ki | 41.1
C[C@H]1CN2CCC[C@H]2CN1C(=O)N1Cc2c(NC(=O)c3cncs3)n[nH]c2C1(C)C | Ki | 135
COc1ccc(C(=O)Nc2n[nH]c3c2CN(C(=O)N2C[C@@H]4CCCN4C[C@@H]2Cc2ccccc2)C3(C)C)cc1 | Ki | 30.2
C[C@H]1CN2CCC[C@H]2CN1C(=O)N1Cc2c(NC(=O)c3cccc(F)c3F)n[nH]c2C1(C)C | Ki | 65.4

API: value(readout=Ki, system=Protein Kinase C beta 2 (PKCβII) (Homo sapiens (Human), UniProt P05771)) for record "CCc1ccc(C(=O)Nc2n[nH]c3c2CN(C(=O)N2C[C@@H]4CCCN4C[C@@H]2C)C3(C)C)cc1"
23.8

API: value(readout=Ki, system=Protein Kinase C beta 2 (PKCβII) (Homo sapiens (Human), UniProt P05771)) for record "C[C@@H]1CN(C(=O)N2Cc3c(NC(=O)c4ccccn4)n[nH]c3C2(C)C)C[C@H](C)N1"
77.6

API: value(readout=Ki, system=Protein Kinase C beta 2 (PKCβII) (Homo sapiens (Human), UniProt P05771)) for record "C[C@H]1CN(C)C2(CCC2)CN1C(=O)N1Cc2c(NC(=O)c3ccccn3)n[nH]c2C1(C)C"
8.58

API: value(readout=Ki, system=Protein Kinase C beta 2 (PKCβII) (Homo sapiens (Human), UniProt P05771)) for record "Cc1cc(C(=O)Nc2n[nH]c3c2CN(C(=O)N2C[C@@H](C)N(CC4CCOCC4)C[C@@H]2C)C3(C)C)on1"
38.1
